Biological target: CLDN3/4 (endogenous on LS513 or MCF7 cells)
Experiment: FACS titration of labelled mAb on MCF7 cells (endogenous CLDN3/4+)
Listed here: items and their measured EC50.
MEASURE_NAME: EC50 (µM)

>  <BINDER>
AB2 (antibody, V domains shown, full-length IgG (ExpiCHO)) VH: EVKLEESGGGLVQPGGSMKLSCVASGFTFSDYWMNWVRQSPEKGLEWVAQIRLKSDNYATHYAESVKGRFTISRDDSKRSVYLQMNNLRAEDTGTYYCNDGPPSGCWGQGTTLIVSS VL: DIQMTQSPASLSASVGETVTITCRISENIYSYLAWYQQKQGKSPQLLVYNAKILVEGVPSRFSGSGSGTQFSLKINSLQPEDFGNYYCQHHYTVPWTFGGGTKLEIK

>  <MEASURE_NAME>
EC50

>  <RECORDED_NUMBER>
5

$$$$
>  <BINDER>
AB1 (antibody, V domains shown, full-length IgG (ExpiCHO)) VH: QVQLQQSAAELARPGASVKMSCKASGYTFTTYTMHWVKQRPGQGLEWIGFINPSSGYTDYNQKFKDRTTLTADKSSSTVYMQLSSLTSEDSAVYYCANGDYYVAYWGQGTLVTVSA VL: QIVLTQSPAIMSASLGERVTMTCTASSSVSSTYFHWYQQKPGSSPKLWIYSTSNLASGVPRRFSGSASGTSYSLTISSMEAEDAATYYCHQYHRSPLTFGAGTKLELK

>  <MEASURE_NAME>
EC50

>  <RECORDED_NUMBER>
5

$$$$
>  <BINDER>
AB3 (antibody, V domains shown, full-length IgG (ExpiCHO)) VH: EVKLEESGGGLVQPGGSMKLSCVASGFTFSNYWMNWVRQSPEKGLEWVAQIRLKSDNYATHYAESVKGRFTISRDDSKRSVYLQMNNLRAEDTGTYYCNDGPPSGCWGQGTTLIVSS VL: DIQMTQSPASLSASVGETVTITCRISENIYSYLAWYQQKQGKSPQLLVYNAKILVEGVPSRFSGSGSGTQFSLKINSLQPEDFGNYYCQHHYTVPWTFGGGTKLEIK

>  <MEASURE_NAME>
EC50

>  <RECORDED_NUMBER>
5

$$$$
>  <BINDER>
AB7 (antibody, V domains shown, full-length IgG (ExpiCHO)) VH: EVQLQQSGPELVKPGASMKISCKASGYSFTGYTMNWVKQSHGKNLEWIGLINPYNGGTNYNQKFKGKATLTVDKSSSTAYMELLSLTSEDSAVYYCARGVYDYDGFTYWGQGTLVTVSA VL: QIVLTQSPAIMSASLGDRVTMTCTASSSVSSSYLHWYQQKPGSSPKLWIYSTSNLASGVPARFSGSGSGTSYSLTISSMEAEDAATYYCHQYHRSPPTFGSGTKLEIK

>  <MEASURE_NAME>
EC50

>  <RECORDED_NUMBER>
0.979

$$$$
